Hemolysis (%) at 50 µM values for the compounds below.
system: erythrocyte suspensions of human blood; experiment: Hemolytic activity, hemoglobin release; type: cell-based; conditions: peptide 50 μM (table prints 50 µM); human blood erythrocytes 5% v/v; absorbance 540 nm; percentage compared to melittin; three replicates
Peptide text beside a SMILES is read from it.
Number only, in %; omit the unit.

Solved cases (2 shown):
CC(C)C[C@@H]1NC(=O)[C@H](CCCCN)NC(=O)[C@H](CC(C)C)NC(=O)[C@H](CC(C)C)NC(=O)[C@H](CCCCN)NC(=O)[C@H](CCC(N)=O)NC(=O)[C@H](CCCCN)NC(=O)[C@H](CCCCN)NC(=O)[C@H](CCCCN)NC(=O)[C@H](Cc2c[nH]c3ccccc23)NC1=O [BPC154W, c(KLLKLWKKKQ)] (cyclo(KKKQKLLKLW)) : 4
CC(C)C[C@@H]1NC(=O)[C@H](CCC(N)=O)NC(=O)[C@H](CCCCN)NC(=O)[C@H](CCCCN)NC(=O)[C@H](CCCCN)NC(=O)[C@H](Cc2c[nH]c3ccccc23)NC(=O)[C@H](CCCCN)NC(=O)[C@H](CC(C)C)NC(=O)[C@H](CC(C)C)NC(=O)[C@H](CCCCN)NC1=O [BPC162W, c(LKLLKWKKKQ)] (cyclo(KKKQLKLLKW)) : 57

Here's the next entry for you.
Task item: Entry CC(C)C[C@@H]1NC(=O)[C@H](CCCCN)NC(=O)[C@H](Cc2c[nH]c3ccccc23)NC(=O)[C@H](CCCCN)NC(=O)[C@H](CCCCN)NC(=O)[C@H](CC(C)C)NC(=O)[C@H](CCCCN)NC(=O)[C@H](CC(C)C)NC(=O)[C@H](CCC(N)=O)NC(=O)[C@H](CCCCN)NC1=O [BPC124W, c(LKLKKWKLKQ)] (cyclo(KKWKLKQLKL)) : reported Hemolysis (%) at 50 µM = ?
Reply: 2
